assay: in vivo; type: in vivo; details: mouse, rota-rod, po, per os, male mice, Rota-rod 30 min after administration; dose causing 50% of animals to fall; read-out: TD50 (50% neurotoxic dose)
measureName: TD50 at 0.5 h (mg/kg)
Write it as a number; the unit mg/kg goes unstated.

Sure, the documented TD50 at 0.5 h for Cc1ccccc1N1CCN(C(=O)c2cccnc2)CC1 [Ex. 14] is 635

Sure, the documented TD50 at 0.5 h for Cc1ccc(Cl)cc1N1CCN(C(=O)c2cccnc2)CC1 [Ex. 24] is 525

Sure, the documented TD50 at 0.5 h for O=C(c1cccnc1)N1CCN(c2cccc(C(F)(F)F)c2)CC1 [Ex. 6] is 119

Sure, the documented TD50 at 0.5 h for O=C(c1cccnc1)N1CCN(c2ccccc2F)CC1 [Ex. 8] is 500

Sure, the documented TD50 at 0.5 h for CCOc1cccc(N2CCN(C(=O)c3cccnc3)CC2)c1 [Ex. 18] is 291

Sure, the documented TD50 at 0.5 h for Cl.Cl.O=C(c1cccnc1)N1CCN(c2cccc(C(F)(F)F)c2)CC1 [Ex. 1] is 154
